Source of measurements: ChEMBL document CHEMBL3885861

Species: Rattus norvegicus
Assay: Open TG-GATES - Regimen: Daily Repeat
Assay type: toxicity, organism-based, Sprague-Dawley
Parameters: regimen Daily Repeat, gender Male, age 6 weeks
Conditions: in vivo, po, 1000 mg/kg, […], tissue Plasma, route gavage, dose level High, time 28 day
measurement type: Ca (mg/dL)

INSERT INTO measurements (line_notation, measurement_type, value_units, data_value) VALUES
  ('CNC(=C[N+](=O)[O-])NCCSCc1ccc(CN(C)C)o1', 'Ca', 'mg/dL', 10.5),
  ('COC(=O)C1=C(C)NC(C)=C(C(=O)OC)C1c1ccccc1[N+](=O)[O-]', 'Ca', 'mg/dL', 10.3),
  ('O=C(OC[C@H]1O[C@@H](OC(=O)c2cc(O)c(O)c(OC(=O)c3cc(O)c(O)c(O)c3)c2)[C@H](OC(=O)c2cc(O)c(O)c(OC(=O)c3cc(O)c(O)c(O)c3)c2)[C@@H](OC(=O)c2cc(O)c(O)c(OC(=O)c3cc(O)c(O)c(O)c3)c2)[C@@H]1OC(=O)c1cc(O)c(O)c(OC(=O)c2cc(O)c(O)c(O)c2)c1)c1cc(O)c(O)c(OC(=O)c2cc(O)c(O)c(O)c2)c1', 'Ca', 'mg/dL', 10.7),
  ('CN/C(=N/CCSCc1nc[nH]c1C)NC#N', 'Ca', 'mg/dL', 10.2),
  ('Cc1nnc2n1-c1ccc(Cl)cc1C(c1ccccc1Cl)=NC2', 'Ca', 'mg/dL', 10.5),
  ('CCOc1ccc(NC(C)=O)cc1', 'Ca', 'mg/dL', 10.8);
